# measured.target: Butyrophilin subfamily 3 member A1 (Homo sapiens) (UniProt O00481)
# Sequence (O00481 30-513 limits assumed): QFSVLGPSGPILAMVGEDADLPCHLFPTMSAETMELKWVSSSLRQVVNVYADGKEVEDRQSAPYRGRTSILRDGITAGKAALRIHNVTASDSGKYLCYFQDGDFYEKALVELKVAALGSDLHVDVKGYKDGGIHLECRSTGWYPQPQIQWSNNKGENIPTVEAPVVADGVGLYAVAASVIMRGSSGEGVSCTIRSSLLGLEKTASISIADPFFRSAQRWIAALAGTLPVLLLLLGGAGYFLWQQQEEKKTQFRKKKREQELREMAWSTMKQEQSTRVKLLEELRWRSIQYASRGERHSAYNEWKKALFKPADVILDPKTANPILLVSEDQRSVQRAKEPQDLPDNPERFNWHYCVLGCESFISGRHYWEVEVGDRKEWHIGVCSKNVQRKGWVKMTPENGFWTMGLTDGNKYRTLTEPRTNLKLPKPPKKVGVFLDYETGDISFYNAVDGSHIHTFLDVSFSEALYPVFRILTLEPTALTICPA
# procedure.text: Binding affinity to BTN3A1 in human PBMC-derived Vgamma9/Vdelta2 T cells assessed as induction of Vgamma9Vdelta2 T cells proliferation incubated for 3 days by gamma delta TCR/PE-CD3+ antibody staining based FACS analysis relative to HMBP analog
# reported.conditions: Vgamma9Vdelta2 T cell, time 3.0 day
The entries below are paired with their reported fold change (FC).

| compound | qualifier | fold change (FC) |
| --- | --- | --- |
| C/C(C=O)=C\CCP(=O)(OCOC(=O)C(C)(C)C)OCOC(=O)C(C)(C)C | = | 9 |
| CCOC(=O)CNP(=O)(CC/C=C(\C)C=O)Oc1ccccc1 (configuration not stated) | = | 56 |
| C/C(C=O)=C\CCP(=O)(OCOC(=O)C(C)(C)C)Oc1ccc2ccccc2c1 (configuration not stated) | = | 2 |
| C/C(C=O)=C\CCP(=O)(NCC(=O)OC(C)C)Oc1ccccc1 (configuration not stated) | = | 45 |
| COC(=O)CNP(=O)(CC/C=C(\C)C=O)Oc1ccccc1 (configuration not stated) | = | 31 |
| CCOC(=O)CNP(=O)(CC/C=C(C)/C=N/O)Oc1ccccc1 (configuration not stated) | > | 2100 |
| C/C(C=O)=C\CCP(=O)(OCOC(=O)C(C)(C)C)Oc1ccc2ccc(=O)oc2c1 (configuration not stated) | = | 2 |

These entries and their values trace back to ChEMBL document CHEMBL4673393.
